Source of measurements: ChEMBL document CHEMBL1201862

system: HOP-62; assay: NCI tumour cell line growth inhibition, 48 h
Calls of active or inactive are those of the source. No stated cut-off is given here; in the data, active = GI50 up to about 1.1 µM and inactive = higher.
Lab note: assign the record to one of y = active, n = inactive

Example results:
Q: For this compound, state the assay outcome: O=[N+]([O-])c1cccc(CSc2nc(O)c3nc[nH]c3n2)c1
Ans: n

Q: For this compound, state the assay outcome: CCSC1SC(c2ccccc2)(c2ccccc2)c2ccccc21 (stereo unspecified)
Ans: n

Q: For this compound, state the assay outcome: O=C(c1ccco1)N(C(=S)N1CCN(c2ccccn2)CC1)c1ccccc1
Ans: n

More entries:
Q: For this compound, state the assay outcome: COC(=O)CCCc1nc2ccccc2nc1/N=N/c1ccccc1
Ans: n

Q: For this compound, state the assay outcome: CC1CC[C@@]2(OC1)OC1CC3C4CCC5C[C@@H](OC6OC(CO)C(OC7OC(CO)C(O)C(OC8OC(CO)C(O)C(OC9OC(CO)C(O)C(O)C9O)C8O)C7OC7OC(CO)C(O)C(O)C7O)C(O)C6O)[C@H](O)C[C@]5(C)C4CC[C@]3(C)C1[C@@H]2C (stereo partly specified)
Ans: n

Q: For this compound, state the assay outcome: CC(=O)c1[nH]c(NCc2ccccc2)c(C(=S)Nc2ccccc2)c1N
Ans: n

Q: For this compound, state the assay outcome: COc1cccc(C23CCN(C)C(CC(O)C2)C3)c1OC (stereo unspecified)
Ans: n

Q: For this compound, state the assay outcome: O=C(/C=C/c1ccc(O)c(O)c1)OCC(OC(=O)/C=C/c1ccc(O)c(O)c1)C(=O)O (stereo unspecified)
Ans: n

====

tested on: M14; assay: NCI tumour cell line growth inhibition, 48 h
The source made the active and inactive calls. Cut-off read from the data, not from the text of the source: active = GI50 up to about 1.1 µM and inactive = higher.
Each item that follows carries a reported GI50.

Q: Suppose we examine the compound C1=C(c2ccccc2)O[C@H](COCc2ccccc2)C(OCc2ccccc2)[C@@H]1OCc1ccccc1 (some centres undefined) ; what GI50 value has been reported?
Ans: > 10 µM (inactive)

Q: Suppose we examine the compound O=C1/C(=C\c2ccccc2)CN(C(=O)CCN2CCCCC2)C/C1=C/c1ccccc1 ; what GI50 value has been reported?
Ans: 1.7 µM (inactive)

Q: Suppose we examine the compound Cc1ccc(NC(=O)C(=O)CC(=O)c2c(C)[n+]([O-])c3ccccc3[n+]2[O-])cc1C ; what GI50 value has been reported?
Ans: 74.8 µM (inactive)

More entries:
Q: Suppose we examine the compound Cc1ccc(C(=O)Cc2nc3ncccc3[nH]c2=O)cc1 ; what GI50 value has been reported?
Ans: 82.8 µM (inactive)

Q: Suppose we examine the compound CC1(C)CC[C@]2(C(=O)O)[C@H](O)C[C@]3(C)C(=CC[C@@H]4[C@@]5(C)CC[C@H](OC6OC(C(=O)O)C(O)C(O)C6O)C(C)(C)[C@@H]5CC[C@]43C)[C@@H]2C1 (some centres undefined) ; what GI50 value has been reported?
Ans: > 100 µM (inactive)

Q: Suppose we examine the compound N#CSC/C(Cl)=C/Cl.N#CSC/C(Cl)=C\Cl ; what GI50 value has been reported?
Ans: > 100 µM (inactive)

====

tested on: HCC 2998; assay: NCI tumour cell line growth inhibition, 48 h
Active and inactive are the calls of the source. Cut-off read from the data, not from the text of the source: active = GI50 up to about 1.1 µM and inactive = higher.
Lab note: assign the record to one of T (active), F (inactive)

Q: For this compound, state the assay outcome: Cc1nc(C)c(N2CCN(C(=O)O)CC2)c(O)n1
Ans: F

Q: For this compound, state the assay outcome: CC1(C)COC(c2ccccc2-c2ccccc2)=N1
Ans: F

Q: For this compound, state the assay outcome: O=C1C2C3C=C4c5ccccc5N(c5ccccc5)C4(C2C(=O)N1c1ccc([N+](=O)[O-])cc1)[C@H]1C(=O)N(c2ccc([N+](=O)[O-])cc2)C(=O)[C@@H]31 (stereo not given in full)
Ans: F

Now for a further compound.
Q: For this compound, state the assay outcome: COc1cc2ccc(CC(=O)O)cc2cc1OC
Ans: F

====

system: HCT-116; experiment: NCI tumour cell line growth inhibition, 48 h
The source made the active and inactive calls. No stated cut-off is given here; in the data, active = GI50 up to about 1.1 µM and inactive = higher.
endpoint label: GI50

// solved cases for GI50 follow
Q: Suppose we examine the compound O=C1CC(CC(O)C(O)CO)CC(=O)N1 (stereo not given) ; what GI50 value has been reported?
Ans: > 100 µM (inactive)

Q: Suppose we examine the compound O=[N+]([O-])c1cccc(CSc2nc(O)c3nc[nH]c3n2)c1 ; what GI50 value has been reported?
Ans: > 100 µM (inactive)

Q: Suppose we examine the compound CN(CCNC(=O)c1nn(-c2ccccc2)c2c1Cc1ccccc1-2)CCNC(=O)c1nn(-c2ccccc2)c2c1Cc1ccccc1-2 ; what GI50 value has been reported?
Ans: 1.65 µM (inactive)

Q: Suppose we examine the compound Cc1c(C)c2c(c(N)c1C#N)C(=O)N(Nc1ccccc1)C2=O ; what GI50 value has been reported?
Ans: > 100 µM (inactive)

# context switch: different compound, same GI50
Q: Suppose we examine the compound C[C@]12CC/C(=N\OCCN3CCCC3)C=C1CCC1C2CC[C@@]2(C)C1CC[C@]2(C)O (stereo not given in full) ; what GI50 value has been reported?
Ans: 5.16 µM (inactive)

====

tested on: IGROV-1; test: NCI tumour cell line growth inhibition, 48 h
Active and inactive are the calls of the source. Cut-off read from the data, not from the text of the source: active = GI50 up to about 1.1 µM and inactive = higher.
endpoint label: GI50

Q: Suppose we examine the compound FC(F)(F)c1cccc(-c2nc3ccccc3c3c2[C@@]2(N4CCCC4)CCCC[C@@H]32)c1 ; what GI50 value has been reported?
Ans: 12 µM (inactive)

Q: Suppose we examine the compound O=C(NCCN1CCOCC1)c1ccc(I)cc1 ; what GI50 value has been reported?
Ans: > 100 µM (inactive)

Q: Suppose we examine the compound C[C@@H]1O[C@@H](O[C@H]2[C@H](Oc3cc(O)c4c(=O)cc(-c5ccc(O)cc5)oc4c3)O[C@H](CO)[C@@H](O)[C@@H]2O)[C@H](O)[C@H](O)[C@H]1O ; what GI50 value has been reported?
Ans: > 100 µM (inactive)

Q: Suppose we examine the compound Cc1ccc(C(=O)c2nnc(C(=O)c3ccc(C)cc3)nn2)cc1 ; what GI50 value has been reported?
Ans: 95.9 µM (inactive)

Q: Suppose we examine the compound COc1cc2c3cc1Oc1c(O)c(OC)cc4c1[C@H](Cc1ccc(cc1)Oc1cc(ccc1O)C[C@H]3N(C)CC2)N(C)CC4 ; what GI50 value has been reported?
Ans: 13.8 µM (inactive)

More entries:
Q: Suppose we examine the compound Cc1cc2ncn(-c3nc4ccccc4nc3C(C#N)S(C)(=O)=O)c2cc1C (centres undefined) ; what GI50 value has been reported?
Ans: > 100 µM (inactive)

Q: Suppose we examine the compound COc1ccc(/C=N/n2c(Cc3ccc(Cl)cc3)n[nH]c2=O)cc1 ; what GI50 value has been reported?
Ans: 16 µM (inactive)

Q: Suppose we examine the compound NS(=O)(=O)c1ccc(NC(=O)N/N=C/c2ccccc2[N+](=O)[O-])cc1 ; what GI50 value has been reported?
Ans: 31.2 µM (inactive)

Q: Suppose we examine the compound O=C(O)CC1OCC=C2C[N+]3([O-])CCC45c6ccccc6NC4C1C2CC53 (centres undefined) ; what GI50 value has been reported?
Ans: > 100 µM (inactive)

====

system: OVCAR-3; assay: NCI tumour cell line growth inhibition, 48 h
The source made the active and inactive calls. Cut-off read from the data, not from the text of the source: active = GI50 up to about 1.1 µM and inactive = higher.
endpoint label: GI50

// solved cases for GI50 follow
Q: Suppose we examine the molecule COC(=O)[C@H]1[C@@H](O)[C@@]2(O)c3c(OC)cc(OC)cc3O[C@@]2(c2ccc3c(c2)OCO3)[C@@H]1c1ccccc1 ; what GI50 value has been reported?
Ans: 0.0225 µM (active)

Q: Suppose we examine the molecule CC1(C)COC(c2ccccc2-c2ccccc2)=N1 ; what GI50 value has been reported?
Ans: > 100 µM (inactive)

Q: Suppose we examine the molecule O=[N+]([O-])c1cccc(CSc2nc(O)c3nc[nH]c3n2)c1 ; what GI50 value has been reported?
Ans: > 100 µM (inactive)

Q: Suppose we examine the molecule O=C(Nc1ccc2[nH]c(C(=O)N3CC(CCl)c4c3cc([N+](=O)[O-])c3ccccc43)cc2c1)c1cc2ccccc2o1 (stereo not given) ; what GI50 value has been reported?
Ans: > 100 µM (inactive)

Q: Suppose we examine the molecule O=C(c1ccco1)N(C(=S)N1CCN(c2ccccn2)CC1)c1ccccc1 ; what GI50 value has been reported?
Ans: > 100 µM (inactive)

More entries:
Q: Suppose we examine the molecule N#CSC/C(Cl)=C/Cl.N#CSC/C(Cl)=C\Cl ; what GI50 value has been reported?
Ans: > 100 µM (inactive)

Q: Suppose we examine the molecule CCOC(=O)C1C(=O)CC(C)(O)C(C(=O)OCC)C1c1ccc(O)c(OC)c1 (stereo not given) ; what GI50 value has been reported?
Ans: > 100 µM (inactive)

====

tested on: IGROV-1; experiment: NCI tumour cell line growth inhibition, 48 h
Active and inactive are the calls of the source. No stated cut-off is given here; in the data, active = GI50 up to about 1.1 µM and inactive = higher.
Lab note: assign the record to one of yes = active, no = inactive

Q: For this molecule, state the assay outcome: O=[N+]([O-])c1ccc(/C=N/CC2CCCN3CCCCC23)cc1 (centres undefined)
Ans: no

Q: For this molecule, state the assay outcome: CC(=O)OC(C)(C)/C=C/C(=O)[C@](C)(O)[C@H]1[C@H](O)C[C@@]2(C)[C@@H]3CC=C4[C@@H](C[C@H](O)C(=O)C4(C)C)[C@]3(C)C(=O)C[C@]12C
Ans: yes

Q: For this molecule, state the assay outcome: CCN(CC)CCCCC1CCN(CC(=O)N2c3cc(Cl)ccc3NC(=O)CC2C)CC1 (centres undefined)
Ans: no

Now for a further molecule.
Q: For this molecule, state the assay outcome: COc1ccc(/C=C/C(=O)c2ccccc2)cc1OC
Ans: no
